MEASUREMENT_TARGET: PDLIM1, O00151
Sequence (O00151 1-87): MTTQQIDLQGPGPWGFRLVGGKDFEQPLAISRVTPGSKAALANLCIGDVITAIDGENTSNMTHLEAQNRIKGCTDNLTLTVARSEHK
MEASUREMENT_PROTOCOL: holdup assay
Parameters: key: below the threshold = too weak to quantify, mostly under pKd 3.1 to 4
CONDITION_DETAILS: plain residues with an end cap or a label only (N-terminal biotin on a linker: ado-ado)
METRIC_NAME: pKd

Field: example entries. Status: answers known.
EEPEERHTEL [CES2, O00748] ... 3.59
QKNKDKEYYV [NRXN3_rs746444206, Q9Y4C0] ... below the threshold
GFGEERESIL [KIDINS220, Q9ULH0] ... below the threshold
TETASVCTKV [SLC23A1, Q9UHI7] ... below the threshold

Lab note: next binder to report on.
QUERY: pKd for FVHPILQSAV [PRKCA, P17252] ?
RESULT: below the threshold
